target: G-protein coupled receptor 84 (Homo sapiens, UniProt Q9NQS5); experiment: Antagonist activity against GPR84 (unknown origin) expressed in cell membranes assessed as inhibition of 3,3'-di-indolylmethane-induced [35S]GTPgammaS binding treated for 90 mins after 3,3'-di-indolylmethane stimulation in buffer containing 20 mM HEPES at pH 7.4 by top-count assay; type: functional
Sequence (Q9NQS5 whole entry): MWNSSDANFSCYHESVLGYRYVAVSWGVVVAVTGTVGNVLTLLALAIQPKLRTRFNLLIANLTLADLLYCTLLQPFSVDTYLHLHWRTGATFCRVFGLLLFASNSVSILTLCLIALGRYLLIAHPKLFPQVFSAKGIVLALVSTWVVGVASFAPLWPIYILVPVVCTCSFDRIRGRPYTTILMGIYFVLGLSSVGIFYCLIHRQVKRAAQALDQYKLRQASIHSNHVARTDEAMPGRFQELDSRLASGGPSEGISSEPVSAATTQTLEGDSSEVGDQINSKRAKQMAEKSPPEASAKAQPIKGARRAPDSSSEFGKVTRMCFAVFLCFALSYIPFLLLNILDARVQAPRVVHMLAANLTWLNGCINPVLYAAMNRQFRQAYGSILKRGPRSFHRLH
pIC50: −log10 of the molar value.
parameter_measured: pIC50

O=c1nc(OCC2COc3ccccc3O2)cc2n1CCc1cc(OCc3nnn[nH]3)ccc1-2 (stereo not given) :: ≥ 7.00
O=C(NCC1COC1)c1ccc2c(c1)CCn1c-2cc(OCC2COc3ncccc3O2)nc1=O (stereo not given) :: < 6.00
O=c1nc(OCC2COc3ncccc3O2)cc2n1CCc1cc(COC3COC3)ccc1-2 (stereo not given) :: ≥ 7.00

Each compound below has a reported value. Please supply its pIC50.
1. N#CCOc1ccc2c(c1)CCn1c-2cc(OCC2COc3ncccc3O2)nc1=O (stereo not given)
2. O=c1nc(OCC2CCCO2)cc2n1CCc1cc(OCC3COc4ccccc4O3)ccc1-2 (stereo not given)
3. O=c1nc(OCC2COc3ncccc3O2)cc2n1CCc1cc(COCCN3CCOCC3)ccc1-2 (stereo not given)
4. COc1ccc2c(c1)CCn1c-2cc(OCC2CCc3ccccc3O2)nc1=O (stereo not given)
5. CN(C)C(=O)COc1ccc2c(c1)CCn1c-2cc(OCC2CCCO2)nc1=O (stereo not given)
6. O=c1nc(OCC2CCCO2)cc2n1CCc1cc(O)ccc1-2 (stereo not given)

## Output
["≥ 7.00", "≥ 7.00", "≥ 7.00", "< 6.00", "< 6.00", "< 6.00"]

## Input pIC50 for O=c1nc(OCC2CCCO2)cc2n1CCc1cc(OCc3cccc([N+](=O)[O-])c3)ccc1-2 (stereo not given) ?
## Output ≥ 7.00
